Experiment: AUC in male Sprague-Dawley rat at 2 mg/kg, po administered as single dose measured after 4 hrs
Format: ADME, organism-based
Settings: in vivo

CHEMICAL_STRUCTURE	UNIT_ABBREV	AUC at 4 h
CC(C)(N)C(=O)N[C@H](COCc1ccccc1)C(=O)N1CCC2=NN(C3CC3)C(=O)[C@]2(Cc2ccccn2)C1	ng·h/mL	186
CC(C)(N)C(=O)N[C@H](COCc1ccccc1)C(=O)N1CCC2=NN(C3CC3)C(=O)[C@]2(Cc2ccccc2)C1	ng·h/mL	188
CC(C)(N)C(=O)N[C@H](COCc1ccccc1)C(=O)N1CCC2=NN(C(F)(F)F)C(=O)[C@]2(Cc2ccccc2)C1	ng·h/mL	214
CC(C)(N)C(=O)N[C@H](COCc1ccccc1)C(=O)N1CCC2=NN(C3CCC3)C(=O)[C@]2(Cc2ccccc2)C1	ng·h/mL	21.1

* * *

Experiment: Plasma protein binding in monkey assessed as unbound fraction measured after 6 hrs by dialysis method
Assay type: ADME, cell-free, Macaca mulatta
Settings: rhesus monkey
RECORDED_ENDPOINT: fraction unbound at 6 h

CHEMICAL_STRUCTURE	NUMERIC_VALUE
CC(C)(N)C(=O)N[C@H](COCc1ccccc1)C(=O)N1CCC2=NN(C3CC3)C(=O)[C@]2(Cc2ccccc2)C1	0.46

* * *

Experiment: Tmax in male Sprague-Dawley rat at 2 mg/kg, po administered as single dose measured after 4 hrs
Format: ADME, organism-based
Details: in vivo
Listed below: Tmax values for each entry.

CHEMICAL_STRUCTURE	Tmax, min
CC(C)(N)C(=O)N[C@H](COCc1ccccc1)C(=O)N1CCC2=NOC(=O)[C@]2(Cc2ccccc2)C1	15
CC(C)(N)C(=O)N[C@H](COCc1ccccc1)C(=O)N1CCC2=NN(C3CC3)C(=O)[C@]2(Cc2ccccn2)C1	15
CC(C)(N)C(=O)N[C@H](COCc1ccccc1)C(=O)N1CCC2=NN(C(F)(F)F)C(=O)[C@]2(Cc2ccccc2)C1	19.8
CC(C)(N)C(=O)N[C@H](COCc1ccccc1)C(=O)N1CCC2=NN(C3CC3)C(=O)[C@]2(Cc2ccccc2)C1	15
CC(C)(N)C(=O)N[C@H](COCc1ccccc1)C(=O)N1CCC2=NN(C3CCC3)C(=O)[C@]2(Cc2ccccc2)C1	30

* * *

Experiment: AUC in male mouse at 2 mg/kg, po administered as single dose measured after 4 hrs
Assay type: ADME, organism-based
Settings: in vivo

CHEMICAL_STRUCTURE	AUC at 4 h / ng·h/mL
CC(C)(N)C(=O)N[C@H](COCc1ccccc1)C(=O)N1CCC2=NN(C3CC3)C(=O)[C@]2(Cc2ccccc2)C1	93.1

* * *

System: CHO
Assay: Agonist activity at dog GHSR expressed in CHO cells at maximum concentration incubated for 60 min by FLIPR assay relative to control
Format: cell-based
Details: Canis lupus familiaris, filed as agonist
Listed below: Activity values for each entry.

MOLECULE	TARGET_OR_TEST_SYSTEM	Activity [%]
CN1N=C2CCN(C(=O)[C@@H](COCc3ccccc3)NC(=O)C(C)(C)N)C[C@@]2(Cc2ccccc2)C1=O [CAPROMORELIN]	CHO	155
CC(C)(N)C(=O)N[C@H](COCc1ccccc1)C(=O)N1CCC2=NN(C3CCCC3)C(=O)[C@]2(Cc2ccccc2)C1	CHO	117
CC(C)(N)C(=O)N[C@H](COCc1ccccc1)C(=O)N1CCC2=NN(C3CCC3)C(=O)[C@]2(Cc2ccccc2)C1	CHO	125
CC(C)(N)C(=O)N[C@H](COCc1ccccc1)C(=O)N1CCC2=NN(CC3CC3)C(=O)[C@]2(Cc2ccccc2)C1	CHO	120
CC(C)(N)C(=O)N[C@H](COCc1ccccc1)C(=O)N1CCC2=NN(C3CC3)C(=O)[C@]2(Cc2ccccc2)C1	CHO	124
CC(C)(N)C(=O)N[C@H](COCc1ccccc1)C(=O)N1CCC2=NN(C3CC3)C(=O)[C@]2(Cc2ccccn2)C1	CHO	87.4
CN1N=C2CCN(C(=O)[C@@H](COCc3ccccc3)NC(=O)C3CCNCC3)C[C@@]2(Cc2ccccc2)C1=O	CHO	91.6
CC(C)(N)C(=O)N[C@H](COCc1ccccc1)C(=O)N1CCC2=NN(C(F)(F)F)C(=O)[C@]2(Cc2ccccc2)C1	CHO	115
CC(C)(N)C(=O)N[C@H](COCc1ccccc1)C(=O)N1CCC2=NN(C(C)(C)C)C(=O)[C@]2(Cc2ccccc2)C1	CHO	123

Source listed as ChEMBL document CHEMBL6103654.
